tested on: DU-145; assay: MTT cell proliferation assay, DU-145; assay type: cell-based, human; settings: DU-145, prostate; MTT, 72 h
quantity-kind: IC50 (µM)
Write the value in µM as a bare number.

// recorded IC50 for N.N.[Cl][Pt][Cl] [Cisplatin, cis-platinum, reference compound] : 2.82

* * *

tested on: MDA-MB231; assay: MTT cell proliferation assay, MDA-MB231; type: cell-based, human; conditions: Homo sapiens, MDA-MB-231, 72 h
quantity-kind: IC50 (µM)
Write the value in µM as a bare number.

// recorded IC50 for O=C(/C=C/CCc1ccc(O)cc1)/C=C/c1ccc(O)cc1 [DHDK] : 4.49
